# maps each entry to its TGI
System: EKVX NSCLC
test method notes: NCI tumour cell line growth inhibition, 48 h

Recorded results for 3 compounds are shown here.
> print(dat)
                                   compound  value.type  reported
1  Fc1ccc(C(=C2CCN(CCc3ccc4[nH]c(=S)[nH]c4c3)CC2)c2ccc(F)cc2)cc1         TGI   9.04 µM
2  Cn1c(=O)oc2cc(C(O)CN3CCN(Cc4ccccn4)CC3)c(Cl)cc21 (stereo unspecified)         TGI  > 100 µM
3  O=C(O)CC(NC(=O)CP(=O)(O)O)C(=O)O (stereo unspecified)         TGI   7860 µM

TGI reading for Ic1cccc(/C=C/CN2CCN(CCOC(c3ccccc3)c3ccccc3)CC2)c1 : 41.4 µM
